EXPERIMENTAL SYSTEM: SYK kinase (Homo sapiens)
Recorded Ki by entry

CN1CCC(c2nc(Nc3ccc(N(C)C)cc3)c3[nH]ncc3n2)CC1 = 0.01 to 0.1 µM
O=C(c1ccc(Nc2nc(-c3cccs3)nc3cn[nH]c23)cc1)N1CCCC1 = 0.01 to 0.1 µM

Q: Lab note: need Ki for COC(=O)c1cccc(-c2nc(Nc3ccc4c(c3)NC(=O)CC4)c3[nH]ncc3n2)c1 on SYK kinase (Homo sapiens), anyone have it?
Ans: 0.01 to 0.1 µM

Q: Try this molecule too: CN(C)c1ccc(Nc2nc(-c3ccccc3)nc3cn[nH]c23)cc1
Ans: < 0.01 µM

Q: Try this molecule too: CS(=O)(=O)c1cccc(Nc2nc(-c3cccs3)nc3cn[nH]c23)c1
Ans: 0.01 to 0.1 µM

Q: Try this molecule too: c1csc(-c2nc(Nc3ccc(N4CCSCC4)cc3)c3[nH]ncc3n2)c1
Ans: 0.01 to 0.1 µM

====

EXPERIMENTAL SYSTEM: LRRK2 (Homo sapiens, UniProt Q5S007)
Sequence (Q5S007 970-2527 limits assumed): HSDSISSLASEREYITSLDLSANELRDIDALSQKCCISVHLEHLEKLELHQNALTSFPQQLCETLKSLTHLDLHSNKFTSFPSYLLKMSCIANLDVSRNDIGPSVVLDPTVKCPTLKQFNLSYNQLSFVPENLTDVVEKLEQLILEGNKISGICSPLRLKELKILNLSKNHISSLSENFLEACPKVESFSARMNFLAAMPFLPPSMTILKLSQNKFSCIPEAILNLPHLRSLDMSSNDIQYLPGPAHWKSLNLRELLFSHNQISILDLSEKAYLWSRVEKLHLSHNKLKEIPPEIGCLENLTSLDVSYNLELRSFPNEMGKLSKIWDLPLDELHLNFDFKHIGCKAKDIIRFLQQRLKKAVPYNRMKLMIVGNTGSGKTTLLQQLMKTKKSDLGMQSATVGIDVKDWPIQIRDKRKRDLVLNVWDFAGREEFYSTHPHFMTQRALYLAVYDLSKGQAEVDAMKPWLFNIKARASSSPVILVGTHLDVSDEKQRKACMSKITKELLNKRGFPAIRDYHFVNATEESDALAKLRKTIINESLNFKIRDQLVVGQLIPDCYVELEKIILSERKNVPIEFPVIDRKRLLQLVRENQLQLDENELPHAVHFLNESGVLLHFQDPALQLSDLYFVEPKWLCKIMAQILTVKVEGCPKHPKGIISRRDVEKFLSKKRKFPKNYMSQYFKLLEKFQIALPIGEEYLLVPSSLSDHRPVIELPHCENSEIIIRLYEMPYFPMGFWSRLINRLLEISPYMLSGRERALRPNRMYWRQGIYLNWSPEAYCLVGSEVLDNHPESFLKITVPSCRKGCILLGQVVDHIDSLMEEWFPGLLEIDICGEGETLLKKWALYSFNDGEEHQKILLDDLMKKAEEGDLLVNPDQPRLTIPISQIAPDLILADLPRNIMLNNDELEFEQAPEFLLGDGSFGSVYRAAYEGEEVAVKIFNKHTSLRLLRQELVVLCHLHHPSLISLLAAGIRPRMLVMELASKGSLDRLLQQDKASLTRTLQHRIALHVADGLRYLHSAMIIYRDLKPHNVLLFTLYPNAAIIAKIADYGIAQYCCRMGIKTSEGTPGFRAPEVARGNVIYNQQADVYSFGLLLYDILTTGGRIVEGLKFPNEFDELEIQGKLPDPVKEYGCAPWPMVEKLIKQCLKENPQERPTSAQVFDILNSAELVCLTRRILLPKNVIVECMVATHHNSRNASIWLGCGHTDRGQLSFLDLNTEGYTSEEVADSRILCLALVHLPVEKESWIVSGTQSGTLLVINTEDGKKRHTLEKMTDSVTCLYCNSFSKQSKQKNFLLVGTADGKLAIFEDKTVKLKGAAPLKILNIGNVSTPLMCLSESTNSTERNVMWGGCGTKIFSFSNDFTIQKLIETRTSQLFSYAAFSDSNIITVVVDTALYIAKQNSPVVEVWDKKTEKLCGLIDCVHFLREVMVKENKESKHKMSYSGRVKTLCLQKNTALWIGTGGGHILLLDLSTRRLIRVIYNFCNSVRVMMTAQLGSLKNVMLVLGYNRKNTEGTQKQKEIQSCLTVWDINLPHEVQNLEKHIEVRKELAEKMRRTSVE
EXPERIMENT NOTES: LRRK2-LRRK2 G2019S-Assay (LanthaScreen Eu Kinase Binding Assay)
MEASUREMENT CONTEXT: 5 nM LRRK2 or their mutants, 10 nM tracer 236, RT 1 h; read-out: LRRK2 Activities: IC50
Recorded IC50 by entry

COc1ccc(Nc2nc(-c3cccc(NS(C)(=O)=O)c3)nc3cn[nH]c23)cc1OC = 100 to 1000 nM
c1cc(-c2nc(Nc3ccc(N4CCSCC4)cc3)c3[nH]ncc3n2)cs1 = 10 to 100 nM

Q: Lab note: need IC50 for O=C(c1ccc(Nc2nc(-c3ccsc3)nc3cn[nH]c23)cc1)N1CCCC1 on LRRK2 (Homo sapiens, UniProt Q5S007), anyone have it?
Ans: 100 to 1000 nM

Q: Try this compound too: c1ccc(-c2nc(Nc3ccc4c(c3)NCCO4)c3[nH]ncc3n2)cc1
Ans: 10 to 100 nM

Q: Try this compound too: CN(C)c1ccc(Nc2nc(-c3ccsc3)nc3cn[nH]c23)cc1
Ans: 10 to 100 nM

Q: Try this compound too: COc1ccc(-c2nc(Nc3ccc4c(c3)NC(=O)CO4)c3[nH]ncc3n2)cc1
Ans: 100 to 1000 nM

Q: Try this compound too: c1cc2[nH]ncc2cc1Nc1nc(-c2ccc(N3CCCC3)nc2)nc2cn[nH]c12
Ans: 100 to 1000 nM

Q: Try this compound too: CC(=O)N1CCN(c2ccc(Nc3nc(-c4cocn4)nc4cn[nH]c34)cc2)CC1
Ans: 100 to 1000 nM

Q: Try this compound too: COc1ccc(-c2nc(Nc3ccc(OC)c(OC)c3)c3[nH]ncc3n2)cc1
Ans: 100 to 1000 nM

Q: Try this compound too: COc1cccc(-c2nc(Nc3ccc4c(c3)NCCO4)c3[nH]ncc3n2)c1
Ans: 10 to 100 nM

Q: Try this compound too: COc1ccc(-c2nc(Nc3ccc4c(c3)NC(=O)CO4)c3[nH]ncc3n2)cc1OC
Ans: 10 to 100 nM

Q: Try this compound too: COc1ccc(-c2nc(Nc3ccc(N4CCN(C(C)(C)C)CC4)cc3)c3[nH]ncc3n2)cc1
Ans: 100 to 1000 nM

Q: Try this compound too: CC(=O)N1CCN(c2ccc(Nc3nc(-c4cccc(NS(C)(=O)=O)c4)nc4cn[nH]c34)cc2)CC1
Ans: 100 to 1000 nM

Q: Try this compound too: COc1cc(Nc2nc(-c3cccc(S(N)(=O)=O)c3)nc3cn[nH]c23)ccc1N1CCOCC1
Ans: 100 to 1000 nM

Q: Try this compound too: O=S(=O)(NC1CC1)c1cccc(Nc2nc(-c3cccs3)nc3cn[nH]c23)c1
Ans: 100 to 1000 nM

Q: Try this compound too: CC(=O)N1CCN(c2ccc(Nc3nc(-c4cccs4)nc4cn[nH]c34)cc2)CC1
Ans: 100 to 1000 nM

Q: Try this compound too: COc1ccccc1-c1nc(Nc2ccc3cn[nH]c3c2)c2[nH]ncc2n1
Ans: 100 to 1000 nM

Q: Try this compound too: CC1(C)CNc2cc(Nc3nc(-c4cccs4)nc4cn[nH]c34)ccc2S1
Ans: 100 to 1000 nM

Q: Try this compound too: COc1ccc(-c2nc(Nc3ccc4cn[nH]c4c3)c3[nH]ncc3n2)cc1OC
Ans: 100 to 1000 nM

Q: Try this compound too: COc1ccc(Nc2nc(-c3cocn3)nc3cn[nH]c23)cc1OC
Ans: 100 to 1000 nM

This collection of values is drawn from patent US9802937B2.
